Experiment: AUC (0 to infinity) in Beagle dog at 1 mg/kg, po
Format: ADME, organism-based, Canis lupus familiaris
Set-up: time infinity, dose 1 mg/kg, route oral
Conditions: plasma
experimental-endpoint: AUC(0-inf)
# output: numeric value plus its unit

O=C(NC[C@@H]1OC(=O)N2c3ccc(N4CCOCC4=O)cc3OC[C@@H]12)c1ccc(Cl)s1 = 1530 ng·h/mL

Now let's try a different one.
// query I'd like to know its AUC(0-inf). The compound in question is `O=C(NC[C@H]1CN(c2ccc(N3CCOCC3=O)cc2)C(=O)O1)c1ccc(Cl)s1`
// result 1000 ng·h/mL

###

Target: Cytochrome P450 2C9 (Homo sapiens)
Sequence (P11712 whole entry): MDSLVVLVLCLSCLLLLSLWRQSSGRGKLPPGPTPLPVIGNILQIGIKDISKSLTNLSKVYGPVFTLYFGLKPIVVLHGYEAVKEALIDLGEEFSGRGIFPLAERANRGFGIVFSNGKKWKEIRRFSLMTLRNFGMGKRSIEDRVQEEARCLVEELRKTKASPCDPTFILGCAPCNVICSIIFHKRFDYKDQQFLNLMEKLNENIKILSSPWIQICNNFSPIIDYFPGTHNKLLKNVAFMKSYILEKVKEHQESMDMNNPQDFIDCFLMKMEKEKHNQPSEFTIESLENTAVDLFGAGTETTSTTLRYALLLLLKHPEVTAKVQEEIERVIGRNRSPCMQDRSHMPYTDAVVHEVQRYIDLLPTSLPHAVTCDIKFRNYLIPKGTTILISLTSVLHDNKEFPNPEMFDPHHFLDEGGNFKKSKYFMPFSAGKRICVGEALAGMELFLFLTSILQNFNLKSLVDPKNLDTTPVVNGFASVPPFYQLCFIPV
experimental-endpoint: pIC50
One number for each entry, as −log10 of the molar value.

// query Returns the measured pIC50 for the input compound. Input: `O=C(NC[C@@H]1OC(=O)N2c3ccc(N4CCOCC4=O)cc3OC[C@@H]12)c1ccc(Cl)s1`
// result 4.36

###

Assay: Volume of distribution at steady state in Sprague-Dawley rat at 3 mg/kg, iv
Type: ADME, organism-based
Design: dose 3 mg/kg, route intravenous
Settings: in vivo, read-out: Vdss
Field: Vd. Provide a value for each of the compounds that follow.
Answers are plain numbers, in L/kg.

O=C(NC[C@@H]1OC(=O)N2c3ccc(N4CCOCC4=O)cc3S(=O)(=O)C[C@@H]12)c1ccc(Cl)s1 = 0.154

Hey, can you go through the list below and give me Vd for every item?
1. O=C(NC[C@@H]1OC(=O)N2c3ccc(N4CCOCC4=O)cc3NC[C@@H]12)c1ccc(Cl)s1
2. O=C(NC[C@@H]1OC(=O)N2c3ccc(N4CCOCC4=O)cc3CC[C@@H]12)c1ccc(Cl)s1
3. O=C(NC[C@H]1CN(c2ccc(N3CCOCC3=O)cc2)C(=O)O1)c1ccc(Cl)s1
4. NS(=O)(=O)c1ccccc1-c1ccc2c(c1)OC[C@H]1[C@H](CNC(=O)c3ccc(Cl)s3)OC(=O)N21

// result
[0.199, 0.144, 0.19, 0.35]

// query # get_value(readout='Vd', item= `O=C(NC[C@@H]1OC(=O)N2c3ccc(N4CCOCC4=O)cc3SC[C@@H]12)c1ccc(Cl)s1` )
// result 0.574

###

Biological target: Cytochrome P450 2C19 (Homo sapiens, UniProt P33261)
Sequence (P33261 whole entry): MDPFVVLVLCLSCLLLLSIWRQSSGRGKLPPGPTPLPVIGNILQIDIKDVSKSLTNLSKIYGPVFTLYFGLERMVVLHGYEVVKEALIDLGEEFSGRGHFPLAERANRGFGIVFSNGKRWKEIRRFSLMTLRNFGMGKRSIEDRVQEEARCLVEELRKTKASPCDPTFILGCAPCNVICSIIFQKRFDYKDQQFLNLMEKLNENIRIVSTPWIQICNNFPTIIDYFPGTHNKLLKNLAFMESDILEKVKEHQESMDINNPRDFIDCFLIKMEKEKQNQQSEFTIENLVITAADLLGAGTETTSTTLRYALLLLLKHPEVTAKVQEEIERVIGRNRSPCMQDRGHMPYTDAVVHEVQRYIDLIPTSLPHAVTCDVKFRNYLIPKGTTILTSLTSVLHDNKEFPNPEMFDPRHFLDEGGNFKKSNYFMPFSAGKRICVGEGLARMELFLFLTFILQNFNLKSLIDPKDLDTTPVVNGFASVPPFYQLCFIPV
Assay: Inhibition of CYP2C19 (unknown origin)
Type: ADME
experimental-endpoint: IC50

// query # lookup: IC50 of `O=C(NC[C@@H]1OC(=O)N2c3ccc(N4CCOCC4=O)cc3OC[C@@H]12)c1ccc(Cl)s1`
// result > 200 µM

###

Assay: Elimination half life in Sprague-Dawley rat at 9 mg/kg, po
Assay type: ADME, organism-based
Set-up: dose 9 mg/kg, route oral
Settings: in vivo, read-out: beta t1/2 (converted)
experimental-endpoint: half-life (h)
Answers are plain numbers, in h.

// query Look at this molecule and give its reported half-life. `CS(=O)(=O)c1ccccc1-c1ccc2c(c1)OC[C@H]1[C@H](CNC(=O)c3ccc(Cl)s3)OC(=O)N21`
// result 1.43

###

Target: Cytochrome P450 2D6 (Homo sapiens)
Sequence (P10635 whole entry): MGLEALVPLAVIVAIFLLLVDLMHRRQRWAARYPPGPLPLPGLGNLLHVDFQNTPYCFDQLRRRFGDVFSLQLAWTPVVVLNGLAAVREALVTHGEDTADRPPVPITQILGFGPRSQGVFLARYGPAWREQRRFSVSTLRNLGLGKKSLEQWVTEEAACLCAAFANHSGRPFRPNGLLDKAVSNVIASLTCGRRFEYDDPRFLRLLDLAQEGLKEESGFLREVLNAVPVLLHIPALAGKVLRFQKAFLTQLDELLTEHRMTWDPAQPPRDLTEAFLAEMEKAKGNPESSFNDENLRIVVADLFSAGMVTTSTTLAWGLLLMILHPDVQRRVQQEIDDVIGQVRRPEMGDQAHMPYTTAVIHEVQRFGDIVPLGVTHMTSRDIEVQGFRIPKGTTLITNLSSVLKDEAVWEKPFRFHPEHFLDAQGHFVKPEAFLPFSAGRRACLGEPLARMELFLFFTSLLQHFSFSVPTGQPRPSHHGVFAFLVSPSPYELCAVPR
experimental-endpoint: IC50

// query Provide the documented IC50 with Cytochrome P450 2D6 (Homo sapiens) as the system for `O=C(NC[C@@H]1OC(=O)N2c3ccc(N4CCOCC4=O)cc3OC[C@@H]12)c1ccc(Cl)s1`
// result > 200 µM

###

Assay: Elimination half life in Sprague-Dawley rat at 3 mg/kg, po
Format: ADME, organism-based
Set-up: dose 3 mg/kg, route oral
Settings: in vivo, read-out: beta t1/2 (converted)
experimental-endpoint: half-life (h)
Numbers only, in h.

// query Dear colleague, I am looking for the recorded half-life of the following molecule: `O=C(NC[C@H]1CN(c2ccc(N3CCOCC3=O)cc2)C(=O)O1)c1ccc(Cl)s1`
// result 2.9

###

Test: AUC (0 to infinity) in Sprague-Dawley rat at 9 mg/kg, po
Type: ADME, organism-based
Design: time infinity, dose 9 mg/kg, route oral
Conditions: plasma
experimental-endpoint: AUC(0-inf) (ng·h/mL)
Numbers only, in ng·h/mL.

O=C(NC[C@@H]1OC(=O)N2c3ccc(N4CCCCC4=O)cc3OC[C@@H]12)c1ccc(Cl)s1 = 28500

// query Entry `CS(=O)(=O)c1ccccc1-c1ccc2c(c1)OC[C@H]1[C@H](CNC(=O)c3ccc(Cl)s3)OC(=O)N21` has what AUC(0-inf)?
// result 24500

###

Assay: AUC (0 to infinity) in Sprague-Dawley rat at 3 mg/kg, iv
Format: ADME, organism-based
Set-up: time infinity, dose 3 mg/kg, route intravenous
Conditions: plasma
experimental-endpoint: AUC(0-inf) (ng·h/mL)
Answers are plain numbers, in ng·h/mL.

NS(=O)(=O)c1ccccc1-c1ccc2c(c1)OC[C@H]1[C@H](CNC(=O)c3ccc(Cl)s3)OC(=O)N21 = 12200

Provide the reported AUC(0-inf) of each entry below, same order.
1. O=C(NC[C@@H]1OC(=O)N2c3ccc(N4CCOCC4=O)cc3NC[C@@H]12)c1ccc(Cl)s1
2. O=C(NC[C@H]1CN(c2ccc(N3CCOCC3=O)cc2)C(=O)O1)c1ccc(Cl)s1
3. O=C(NC[C@@H]1OC(=O)N2c3ccc(N4CCOCC4=O)cc3S(=O)(=O)C[C@@H]12)c1ccc(Cl)s1

// result
5700
9980
6120

Report AUC(0-inf) for every entry below.
1. O=C(NC[C@@H]1OC(=O)N2c3ccc(N4CCOCC4=O)cc3CC[C@@H]12)c1ccc(Cl)s1
2. O=C(NC[C@@H]1OC(=O)N2c3ccc(N4CCOCC4=O)cc3OC[C@@H]12)c1ccc(Cl)s1
3. O=C(NC[C@@H]1OC(=O)N2c3ccc(N4CCOCC4=O)cc3SC[C@@H]12)c1ccc(Cl)s1

// result
1. 20400
2. 15300
3. 5700

###

Data export: IC50 values recorded with Coagulation factor X (Homo sapiens).
Sequence (P00742 41-179 limits assumed): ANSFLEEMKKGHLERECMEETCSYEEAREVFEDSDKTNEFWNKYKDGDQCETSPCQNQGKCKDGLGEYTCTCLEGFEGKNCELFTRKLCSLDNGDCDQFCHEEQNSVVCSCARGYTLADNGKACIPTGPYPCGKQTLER
Sequence (P00742 235-488 limits assumed): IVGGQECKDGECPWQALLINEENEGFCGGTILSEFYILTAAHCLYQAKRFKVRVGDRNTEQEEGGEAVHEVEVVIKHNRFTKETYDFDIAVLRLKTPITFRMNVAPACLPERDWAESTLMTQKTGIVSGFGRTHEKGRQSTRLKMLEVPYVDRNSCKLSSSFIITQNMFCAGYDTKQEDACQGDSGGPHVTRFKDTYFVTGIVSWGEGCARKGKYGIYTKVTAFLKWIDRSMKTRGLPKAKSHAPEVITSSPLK
Answers are plain numbers, in µM.

Record excerpt, results attached:
O=C(NC[C@@H]1OC(=O)N2c3ccc(N4CCC5(CC4=O)OCCO5)cc3OC[C@@H]12)c1ccc(Cl)s1 = 2.51
CC(C)(C)OC(=O)N1C[C@H]2[C@H](CNC(=O)c3ccc(Cl)s3)OC(=O)N2c2ccc(N3CCCCC3=O)cc21 = 8.18
CS(=O)(=O)c1ccccc1-c1ccc2c(c1)SC[C@H]1[C@H](CNC(=O)c3ccc(Cl)cc3)OC(=O)N21 = 1.61

// query Please report the recorded IC50 for `O=C(NC[C@@H]1OC(=O)N2c3ccc(N4CC[C@H](O)CC4=O)cc3OC[C@@H]12)c1ccc(Cl)s1` .
// result 1.22

###

Biological target: Cytochrome P450 2C8 (Homo sapiens, UniProt P10632)
Sequence (P10632 whole entry): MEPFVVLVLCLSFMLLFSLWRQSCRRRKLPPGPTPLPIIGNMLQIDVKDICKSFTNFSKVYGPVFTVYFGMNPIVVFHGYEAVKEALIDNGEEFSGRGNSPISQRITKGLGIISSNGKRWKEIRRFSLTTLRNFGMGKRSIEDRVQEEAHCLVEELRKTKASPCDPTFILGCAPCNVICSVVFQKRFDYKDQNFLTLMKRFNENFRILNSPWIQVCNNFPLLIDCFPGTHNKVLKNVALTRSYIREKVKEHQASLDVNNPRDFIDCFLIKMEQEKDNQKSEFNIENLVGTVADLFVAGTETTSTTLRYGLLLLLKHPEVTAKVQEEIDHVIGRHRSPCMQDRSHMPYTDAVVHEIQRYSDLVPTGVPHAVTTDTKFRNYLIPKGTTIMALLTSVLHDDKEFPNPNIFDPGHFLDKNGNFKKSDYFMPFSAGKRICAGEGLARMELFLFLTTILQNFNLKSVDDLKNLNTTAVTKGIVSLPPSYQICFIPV
Experiment: Inhibition of CYP2C8 (unknown origin)
Type: ADME
experimental-endpoint: IC50 (µM)
Numbers only, in µM.

// query Could you share which IC50 value was measured for `O=C(NC[C@@H]1OC(=O)N2c3ccc(N4CCOCC4=O)cc3OC[C@@H]12)c1ccc(Cl)s1` ?
// result 99.7

###

Assay: Cmax in Beagle dog at 1 mg/kg, po
Assay type: ADME, organism-based, Canis lupus familiaris
Set-up: dose 1 mg/kg, route oral
Conditions: in vivo
experimental-endpoint: Cmax (ng/mL)
Numbers only, in ng/mL.

O=C(NC[C@@H]1OC(=O)N2c3ccc(N4CCOCC4=O)cc3OC[C@@H]12)c1ccc(Cl)s1 = 530

// query Sample `O=C(NC[C@H]1CN(c2ccc(N3CCOCC3=O)cc2)C(=O)O1)c1ccc(Cl)s1` — what was its Cmax?
// result 333

###

Assay: Tmax in Beagle dog at 1 mg/kg, po
Type: ADME, organism-based, Canis lupus familiaris
Parameters: dose 1 mg/kg, route oral
Conditions: in vivo
experimental-endpoint: Tmax (min)
Give bare numbers, in min.

O=C(NC[C@@H]1OC(=O)N2c3ccc(N4CCOCC4=O)cc3OC[C@@H]12)c1ccc(Cl)s1 = 30

Next up:
// query Item under review: `O=C(NC[C@H]1CN(c2ccc(N3CCOCC3=O)cc2)C(=O)O1)c1ccc(Cl)s1` . Reported Tmax?
// result 42

###

Experiment: Elimination half life in Beagle dog at 1 mg/kg, po
Assay type: ADME, organism-based, Canis lupus familiaris
Design: dose 1 mg/kg, route oral
Details: in vivo
Exercise: state measured half-life for each of the compounds provided.
Give bare numbers, in h.

O=C(NC[C@H]1CN(c2ccc(N3CCOCC3=O)cc2)C(=O)O1)c1ccc(Cl)s1 = 1.8

// query Quick one: half-life of `O=C(NC[C@@H]1OC(=O)N2c3ccc(N4CCOCC4=O)cc3OC[C@@H]12)c1ccc(Cl)s1` ?
// result 2

###

Assay: AUC (0 to infinity) in Sprague-Dawley rat at 4.5 mg/kg, iv
Type: ADME, organism-based
Set-up: time infinity, dose 4.5 mg/kg, route intravenous
Details: plasma
experimental-endpoint: AUC(0-inf) (ng·h/mL)
Answers are plain numbers, in ng·h/mL.

CS(=O)(=O)c1ccccc1-c1ccc2c(c1)OC[C@H]1[C@H](CNC(=O)c3ccc(Cl)s3)OC(=O)N21 = 43900

Please examine the following record next.
// query Sample `O=C(NC[C@@H]1OC(=O)N2c3ccc(N4CCCCC4=O)cc3OC[C@@H]12)c1ccc(Cl)s1` — what was its AUC(0-inf)?
// result 33600
